The binders listed here are annotated with their Inhibition of binding (%).
Target: hCMV gH + gL + UL128 + UL130 + UL131A (co-expressed in HEK293T cells) (human cytomegalovirus), P12824
Assay: competitor: 15D8-biotin; cell staining
Details: remark: other sources report otherwise

- BINDER: "10F7 (antibody, V domains shown) VH: EVQLVESGGGLVQPGRSLRLSCTASGFTFGDYAMSWFRQAPGKGLEWVGFIRSKAYGGTTEYAASVKGRFTISRDDSKSIAYLQMNSLKTEDTAVYYCTRASSLLWLLNPQPNFDYWGQGTLVTVSS VL: SYVLTQPPSVSVAPGQTARITCGGNNIGSNNVHWYQQKPGQAPVLVVYDDSDRPSGIPERFSGSNSGNTATLTISRVEAGDEADYYCQVWDSSSDHPVFGGGTKLTVL"
  Inhibition of binding (%): 0
- BINDER: "2C12 (antibody, V domains shown) VH: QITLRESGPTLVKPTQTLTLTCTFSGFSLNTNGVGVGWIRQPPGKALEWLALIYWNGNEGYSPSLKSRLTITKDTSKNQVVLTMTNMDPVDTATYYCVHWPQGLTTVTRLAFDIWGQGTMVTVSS VL: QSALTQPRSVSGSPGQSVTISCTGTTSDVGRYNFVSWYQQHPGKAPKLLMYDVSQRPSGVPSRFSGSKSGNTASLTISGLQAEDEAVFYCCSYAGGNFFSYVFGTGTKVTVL"
  Inhibition of binding (%): 0
- BINDER: "15D8 (antibody, V domains shown) VH: EVQLVQSGAEVKKPGESLKISCQASGYSFTNYWIAWVRQMPGKGLEWMGIIYPGDSDIKYSPSFRGQVTISADKSISNAFLQWRSLRASDTAMYYCARHAIRGDGFDYWGQGTLVTVSS VL: SYELTQPPSVSVSPGQTATITCSGDKLGEKYACWYQQKPGQSPVLVMYQDTKRPSGIPERFSGSNSGNTATLTISGTRAMDEADYYCQAWDTNTVIFGGGTKLTVL"
  Inhibition of binding (%): 100
- BINDER: "10P3 (antibody, V domains shown) VH: EVQLVESGGGLVRPGGSLRLSCAASGFTFHNYRMNWVRQAPGKGLEWVANIKQDGSEKSYVDSVRGRFTTSRDNSKNSLYLQINSLRAEDTAVYYCARGEGYTYGVVYSYSAMDVWGQGTTVIVSS VL: SYELTQPPSVSVSPGQTARITCSGNVLPNQYASWYQQKPGQAPVLVIYKDTERPSGIPGRFSGSSSGTTVTLTISGVQAEDEADYYCQSADSSGADYVFGTGTKVTVL"
  Inhibition of binding (%): 0
- BINDER: "4N10 (antibody, V domains shown) VH: QVQLVQSGAEVKKPGSSVRVSCKASGGTFSSYVIIWVRQAPGQGLEWMGGVIPIFDTVNYAQKFQGRVTITADESTSTAYMELSSLKSEDTAVYYCARGILAYCGGDCYNTPYGMDVWGQGTTVTVSS VL: DIQMTQSPSILSASVGDRVTITCRASQSISSWLAWYQQKPGKAPKLLIYKASSLEIGVPSRISGSGSGTEFTLTISSLQPDDFATYYCQQYNSSWTFGQGTKVEIK"
  Inhibition of binding (%): 0

Reference source: patent US20170129940A1
